Entry source: the OligoGym collection

What target mRNA knockdown was measured for each of the following?
- assay-setup: siRNA; also: test system not given here
HELM strings list units from the 5' end as sugar, base in round brackets, then linkage (d deoxyribose, r ribose, m 2'-O-methyl, p phosphodiester). Strings are as the collection lists them, not checked against the first reports. ss, as = sense and antisense strand; [fl2r] = 2'-fluoro
Give bare numbers, in %.

Example entries begin here.
{"substance": "RNA1{r(C)p.r(G)p.r(G)p.r(G)p.r(U)p.r(A)p.r(C)p.r(G)p.r(A)p.r(G)p.r(C)p.r(C)p.r(G)p.r(G)p.r(A)p.r(A)p.r(C)p.r(C)p.r(U)p.r(T)p.r(T)}|RNA2{r(A)p.r(G)p.r(G)p.r(U)p.r(U)p.r(C)p.r(C)p.r(G)p.r(G)p.r(C)p.r(U)p.r(C)p.r(G)p.[fl2r](U)p.r(A)p.r(C)p.r(C)p.r(C)p.r(G)p.r(T)p.r(T)}$$$RNA1{StrandType:ss}|RNA2{StrandType:as}$", "target mRNA knockdown / %": 69}
{"substance": "RNA1{r(C)p.[fl2r](U)p.r(A)p.r(G)p.r(A)p.r(G)p.r(G)p.r(A)p.r(U)p.r(C)p.r(U)p.r(U)p.r(G)p.r(A)p.r(A)p.r(G)p.r(A)p.r(C)p.r(C)p.r(T)p.r(T)}|RNA2{r(G)p.r(G)p.r(U)p.r(C)p.r(U)p.r(U)p.r(C)p.r(A)p.r(A)p.r(G)p.r(A)p.r(U)p.r(C)p.r(C)p.r(U)p.r(C)p.r(U)p.r(A)p.r(G)p.r(T)p.r(T)}$$$RNA1{StrandType:ss}|RNA2{StrandType:as}$", "target mRNA knockdown / %": 81}

# next substance below
response.value for RNA1{r(C)p.r(G)p.r(G)p.r(G)p.[fl2r](U)p.[fl2r](A)p.r(C)p.r(G)p.r(A)p.r(G)p.r(C)p.r(C)p.r(G)p.r(G)p.r(A)p.r(A)p.r(C)p.r(C)p.r(U)p.r(T)p.r(T)}|RNA2{r(A)p.r(G)p.r(G)p.r(U)p.r(U)p.r(C)p.r(C)p.r(G)p.r(G)p.r(C)p.r(U)p.r(C)p.r(G)p.[fl2r](U)p.r(A)p.r(C)p.r(C)p.r(C)p.r(G)p.r(T)p.r(T)}$$$RNA1{StrandType:ss}|RNA2{StrandType:as}$ (field: target mRNA knockdown) = 68
